- assayedTarget: T1, AnkB ΔZZUD (human, UniProt Q01484-2 1-1872)
- T1 chain: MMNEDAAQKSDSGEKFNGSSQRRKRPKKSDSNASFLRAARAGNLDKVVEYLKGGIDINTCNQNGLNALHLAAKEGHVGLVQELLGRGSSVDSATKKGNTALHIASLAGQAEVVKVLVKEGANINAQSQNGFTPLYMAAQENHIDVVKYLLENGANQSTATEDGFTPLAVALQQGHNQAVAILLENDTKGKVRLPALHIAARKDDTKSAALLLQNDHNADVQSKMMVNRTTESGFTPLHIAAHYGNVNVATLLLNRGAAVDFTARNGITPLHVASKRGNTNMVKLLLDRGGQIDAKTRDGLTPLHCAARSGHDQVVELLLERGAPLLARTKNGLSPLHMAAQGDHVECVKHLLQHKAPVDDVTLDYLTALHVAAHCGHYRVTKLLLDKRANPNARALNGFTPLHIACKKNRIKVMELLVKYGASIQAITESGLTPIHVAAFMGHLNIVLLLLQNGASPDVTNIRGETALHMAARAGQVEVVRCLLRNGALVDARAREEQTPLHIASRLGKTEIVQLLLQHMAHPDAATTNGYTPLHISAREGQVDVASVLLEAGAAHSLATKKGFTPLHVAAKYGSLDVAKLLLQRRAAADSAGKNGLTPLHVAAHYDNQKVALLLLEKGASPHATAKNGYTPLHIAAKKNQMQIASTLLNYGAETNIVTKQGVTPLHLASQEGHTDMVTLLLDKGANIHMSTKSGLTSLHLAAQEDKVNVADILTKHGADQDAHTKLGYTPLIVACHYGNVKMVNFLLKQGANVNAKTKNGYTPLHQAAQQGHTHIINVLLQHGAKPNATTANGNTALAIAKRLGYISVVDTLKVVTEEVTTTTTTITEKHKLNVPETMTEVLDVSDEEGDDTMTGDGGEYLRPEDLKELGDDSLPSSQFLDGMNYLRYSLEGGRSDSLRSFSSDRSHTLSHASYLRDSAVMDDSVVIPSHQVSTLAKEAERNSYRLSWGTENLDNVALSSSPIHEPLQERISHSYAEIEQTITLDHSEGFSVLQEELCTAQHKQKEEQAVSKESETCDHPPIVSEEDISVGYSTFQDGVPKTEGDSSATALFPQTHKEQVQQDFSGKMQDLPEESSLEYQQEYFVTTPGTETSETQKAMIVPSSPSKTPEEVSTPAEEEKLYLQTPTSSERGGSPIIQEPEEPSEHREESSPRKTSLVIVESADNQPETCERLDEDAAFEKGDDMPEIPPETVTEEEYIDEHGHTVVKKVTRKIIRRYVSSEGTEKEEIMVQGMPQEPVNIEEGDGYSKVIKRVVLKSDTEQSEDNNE
- measurementDescription: ITC
pKd: −log10 of the molar value.

binder	pKd
SDDSLVDYGEGGEGQFNEDGSFIGQYTV (domain or fragment) [NF186 (aa 1187–1214)]	4.85
